MEASURED_ON: Cruzipain (Trypanosoma cruzi)
ASSAY_REMARKS: Inhibition of Trypanosoma cruzi cruzain at 100 uM pre-incubated for 10 mins followed by addition of Z-Phe-Arg-aminomethylcoumarin as substrate measured after 5 mins by spectrofluorimetry
Listed molecules paired with reported inhibition
Kindly provide the numeric value in % only, without the unit symbol.

> print(dat)
                                   molecule                    measured.on  assay.endpoint  unit.abbrev  test.result
1        C=CCNC(=S)Nc1sc2c(c1C(=O)OCC)CCCC2  Cruzipain (Trypanosoma cruzi)      inhibition            %           41
2  CC(C)OC(=O)c1c(/N=c2\scc(-c3ccccc3)n2-c2ccccc2)sc2c1CCCC2  Cruzipain (Trypanosoma cruzi)      inhibition            %           25
3  CC(C)OC(=O)c1c(/N=C2\SCC(=O)N2c2ccccc2)sc2c1CCCC2  Cruzipain (Trypanosoma cruzi)      inhibition            %           72

Request: If you can, please state the reported inhibition value of CCOC(=O)c1c(/N=C2\SCC(=O)N2c2ccccc2)sc2c1CCCC2 .
Response: 17

Request: If you can, please state the reported inhibition value of C=CCN1C(=O)C(CC(=O)O)S/C1=N\c1sc2c(c1C(=O)OCC)CCCC2 (stereo not given) .
Response: 89

Request: If you can, please state the reported inhibition value of C=CCN1C(=O)C(CC(=O)O)S/C1=N\c1sc2c(c1C(=O)OC(C)C)CCCC2 (stereo not given) .
Response: 80

Request: If you can, please state the reported inhibition value of C=CCn1c(-c2ccccc2)cs/c1=N\c1sc2c(c1C(=O)OC(C)C)CCCC2 .
Response: 67

Request: If you can, please state the reported inhibition value of C=CCN1C(=O)CS/C1=N\c1sc2c(c1C(=O)OCC)CCCC2 .
Response: 40

Request: If you can, please state the reported inhibition value of C=CCn1c(C)c(C(=O)OCC)s/c1=N\c1sc2c(c1C(=O)OCC)CCCC2 .
Response: 82

Request: If you can, please state the reported inhibition value of CCOC(=O)c1c(NC(=S)Nc2ccccc2)sc2c1CCCC2 .
Response: 4
